// data source = patent EP3016671B1

protocol-details: Transport across the BBB, in vitro bovine cell assay (co-culture, transwell)
experimental-setup: pH 7.4

compound	Papp
CC(C)C[C@@H]1NC(=O)[C@H](C)NC(=O)[C@H]([C@@H](C)O)NC(=O)[C@H](CCC(=O)O)NC(=O)[C@@H]2CCCN2C(=O)[C@H](C)NC(=O)[C@H](CCCCN)NC(=O)[C@@H]2CSSC[C@@H](C(=O)N[C@@H](CCC(N)=O)C(=O)N[C@@H](CCC(N)=O)C(=O)N[C@@H](Cc3cnc[nH]3)C(N)=O)NC(=O)[C@H](CCCNC(=N)N)NC(=O)[C@H](CCCNC(=N)N)NC(=O)[C@H](C)NC(=O)[C@H](CSSC[C@H](N)C(=O)N[C@@H](CC(N)=O)C(=O)N2)NC1=O [Comparative example 1, reference compound]	0.8 ×10⁻⁶ cm/s
